Tested on: 485176-168-R4-J1-PDC spheroids with HUVEC/MSC, viability
Assay Explanation: Anticancer human tumor 485176-168-R4-J1-PDC patient-derived pancreatic adenocarcinoma cell line growth inhibition [GQUAD]
Assay Context: second compound 10 µM; first compound 3.16 µM; active compounds read low
Binary label based on viability, T/C with cut-off 30%: below gives t, not below gives f.

stdin: For this molecule, is viability, T/C lower than 30%? CC(C)(O)C1CCC(Nc2ccc3ncc(-c4cccc(C(F)(F)F)c4)n3n2)CC1 (stereo not drawn) + Cc1[nH]c2ccc(F)cc2c1-c1nc2c3cccnc3c3ncccc3c2[nH]1
stdout: f

stdin: For this molecule, is viability, T/C lower than 30%? CC1COCCN1c1cc(C2(S(C)(=N)=O)CC2)nc(-c2ccnc3[nH]ccc23)n1 (stereo not drawn) + Cc1cnc(CNC(=O)c2c(=O)c3ccc(N4CCCN(C)CC4)nc3n3c2sc2ccccc23)cn1
stdout: t

stdin: For this molecule, is viability, T/C lower than 30%? COc1ncnc(C2CC2)c1-c1ncc2cnn(Cc3ccc(-c4nc(C(F)(F)F)cn4C(C)C)cc3)c2n1 + Cc1[nH]c2ccc(F)cc2c1-c1nc2c3cccnc3c3ncccc3c2[nH]1
stdout: f

stdin: For this molecule, is viability, T/C lower than 30%? COc1cccc2c1C(=O)c1c(O)c3c(c(O)c1C2=O)CC(O)(C(=O)CO)CC3OC1CC(N)C(O)C(C)O1 (stereo not drawn) + Cc1cnc(CNC(=O)c2c(=O)c3ccc(N4CCCN(C)CC4)nc3n3c2sc2ccccc23)cn1
stdout: t

stdin: For this molecule, is viability, T/C lower than 30%? CC1COCCN1c1cc(C2(S(C)(=N)=O)CC2)nc(-c2ccnc3[nH]ccc23)n1 (stereo not drawn) + Cc1[nH]c2ccc(F)cc2c1-c1nc2c3cccnc3c3ncccc3c2[nH]1
stdout: t

stdin: For this molecule, is viability, T/C lower than 30%? COc1ccc([C@@H](O)c2cc(-c3ncnc4cc(N5CCOCC5)ccc34)c(F)cc2Cl)nn1 + CN(C)c1ccc(Nc2c3ccc(NC(=O)CCN4CCCC4)cc3nc3cc(NC(=O)CCN4CCCC4)ccc23)cc1
stdout: f

stdin: For this molecule, is viability, T/C lower than 30%? Nc1ccn(C2OC(CO)C(O)C2(F)F)c(=O)n1 (stereo not drawn) + Cc1[nH]c2ccc(F)cc2c1-c1nc2c3cccnc3c3ncccc3c2[nH]1
stdout: t

stdin: For this molecule, is viability, T/C lower than 30%? Cc1cccc(N(C)C(=O)C2C(O)CCN2c2nc(C)cc(C(F)(F)F)c2C#N)c1 (stereo not drawn) + Cc1cnc(CNC(=O)c2c(=O)c3ccc(N4CCCN(C)CC4)nc3n3c2sc2ccccc23)cn1
stdout: f

###

Record form. Attribute: viability, T/C. Fill in for each entry.
Test system: 485176-168-R4-J1-PDC spheroids with HUVEC/MSC, viability
Assay Explanation: Anticancer human tumor 485176-168-R4-J1-PDC cell line growth inhibition [GQUAD];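 note: spheroids exposed to compounds for seven days before readout; percent viability relative to DMSO vehicle control wells as 100%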
Assay Context: second compound 0.1 µM; first compound 0.316 µM; active compounds read low
Excerpt: DNA G-quadruplex Stabilizer Agents in Combinations in Complex Spheroids A high-throughput screen of multi-cell type tumor spheroids was designed to identify active combinations of DNA G-quadruplex stabilizer agents and targeted small molecules. […] Compounds. […] If the clinical Cmax for an agent had not been determined, the highest concentration tested was 10 microM. […]
Express the result in % but write the number alone.

Just so you know, measured viability, T/C for Cc1[nH]c2ccccc2c1CCNCc1ccc(/C=C/C(=O)NO)cc1 + CN(C)c1ccc(Nc2c3ccc(NC(=O)CCN4CCCC4)cc3nc3cc(NC(=O)CCN4CCCC4)ccc23)cc1 came out at 12.1

Just so you know, measured viability, T/C for C#Cc1c(F)ccc2cc(O)cc(-c3ncc4c(N5CC6CCC(C5)N6)nc(OCC56CCCN5CC(F)C6)nc4c3F)c12 (stereo unspecified) + CN(C)c1ccc(Nc2c3ccc(NC(=O)CCN4CCCC4)cc3nc3cc(NC(=O)CCN4CCCC4)ccc23)cc1 came out at 91.9

Just so you know, measured viability, T/C for C=CCn1c(=O)c2cnc(Nc3ccc(N4CCN(C)CC4)cc3)nc2n1-c1cccc(C(C)(C)O)n1 + Cc1[nH]c2ccc(F)cc2c1-c1nc2c3cccnc3c3ncccc3c2[nH]1 came out at 60.2

Just so you know, measured viability, T/C for O=C(NO)c1cnc(N2CCN(S(=O)(=O)c3ccc4ccccc4c3)CC2)nc1 + CN(C)c1ccc(Nc2c3ccc(NC(=O)CCN4CCCC4)cc3nc3cc(NC(=O)CCN4CCCC4)ccc23)cc1 came out at 70.8

Just so you know, measured viability, T/C for Cc1cccc(N(C)C(=O)C2C(O)CCN2c2nc(C)cc(C(F)(F)F)c2C#N)c1 (stereo unspecified) + CN(C)c1ccc(Nc2c3ccc(NC(=O)CCN4CCCC4)cc3nc3cc(NC(=O)CCN4CCCC4)ccc23)cc1 came out at 98

Just so you know, measured viability, T/C for CC(C)n1c(=O)n(C)c2cnc3cc(F)c(-c4ccc(OCCCN5CCCCC5)nc4)cc3c21 + Cc1[nH]c2ccc(F)cc2c1-c1nc2c3cccnc3c3ncccc3c2[nH]1 came out at 77.7
